- Tested on: Zea mays (ZEAMX)
- method_notes: Pre-emergence Test (glasshouse, percentage damage to the plant)
- Format: in vivo
- experimental_parameters: 1000 g/ha unless otherwise stated, five-point scale
Quick reference for percentage damage to the plant, ZEAMX among some molecules

# molecule, tgt, percentage damage to the plant, ZEAMX
rows = [
    ("CCn1c(C)c(-c2ccc(C(C)(C)C)cc2)c(=O)c(C(=O)O)c1-c1ccc(Cl)c(Cl)c1", "Zea mays (ZEAMX)", "1 (1=0-20%)"),
    ("CCOc1cc(-c2c(C)n(CC)c(-c3ccc(Cl)c(Cl)c3)c(C(=O)O)c2=O)ccc1C(F)(F)F", "Zea mays (ZEAMX)", "1 (1=0-20%)"),
    ("CCOc1cc(-c2c(C)n(CC)c(-c3ccc(Cl)cc3)c(C(=O)O)c2=O)ccc1C(F)(F)F", "Zea mays (ZEAMX)", 0),
    ("CCn1c(C)c(-c2cc(F)c(OC)c(F)c2)c(=O)c(C(=O)O)c1-c1ccc(Cl)c(Cl)c1", "Zea mays (ZEAMX)", "1 (1=0-20%)"),
    ("CCn1c(C)c(-c2cccc(C(F)(F)F)c2F)c(=O)c(C(=O)O)c1-c1ccc(Cl)cc1", "Zea mays (ZEAMX)", "2 (2=21-40%)"),
    ("CCn1c(C)c(-c2cc(Cl)cc(Cl)c2)c(=O)c(C(=O)O)c1-c1ccc(Cl)cc1", "Zea mays (ZEAMX)", 0),
    ("CCn1c(C)c(-c2ccc(F)c(C#N)c2)c(=O)c(C(=O)O)c1-c1ccc(Cl)cc1", "Zea mays (ZEAMX)", "1 (1=0-20%)"),
    ("CCn1c(C)c(-c2cc(Cl)c(F)c(Cl)c2)c(=O)c(C(=O)O)c1-c1ccc(Cl)cc1", "Zea mays (ZEAMX)", 0),
    ("CCn1c(C)c(-c2ccc(C(F)(F)F)c(Cl)c2)c(=O)c(C(=O)O)c1-c1ccc(Cl)cc1 [Compound 171]", "Zea mays (ZEAMX)", 0),
    ("CCn1c(C)c(-c2cc(F)cc(F)c2)c(=O)c(C(=O)O)c1-c1ccc(Cl)c(Cl)c1", "Zea mays (ZEAMX)", "2 (2=21-40%)"),
    ("CCn1c(C)c(-c2cccc(C(F)(F)F)c2)c(=O)c(C(=O)O)c1-c1ccnc(Cl)c1", "Zea mays (ZEAMX)", 0),
    ("CCn1c(C)c(-c2ccc(OC)c(C)c2)c(=O)c(C(=O)O)c1-c1ccc(Cl)c(Cl)c1", "Zea mays (ZEAMX)", "1 (1=0-20%)"),
    ("CCn1c(C)c(-c2ccc(S(=O)(=O)CC)cc2)c(=O)c(C(=O)O)c1-c1ccc(Cl)c(Cl)c1", "Zea mays (ZEAMX)", "1 (1=0-20%)"),
    ("CCn1c(C)c(-c2cc(Cl)nc(OC(C)C)c2)c(=O)c(C(=O)O)c1-c1ccc(Cl)c(Cl)c1", "Zea mays (ZEAMX)", "2 (2=21-40%)"),
    ("CCOC(=O)c1c(-c2ccc(Br)cc2F)n(CC)c(C)c(-c2ccc(Cl)cc2)c1=O", "Zea mays (ZEAMX)", 0),
]

====

Quick reference for Post-emergence Test ECHCG, percentage damage to the plant (five-point scale) among some molecules
- Tested on: Echinochloa crus-galli (ECHCG)
- method_notes: Post-emergence Test (glasshouse, percentage damage to the plant)
- Format: in vivo
- experimental_parameters: post-emergence spray, 1000 g/ha unless otherwise stated, evaluated after 13 days
value_kind: Post-emergence Test ECHCG, percentage damage to the plant (five-point scale)

# molecule, meas_value
data = [
    ("CCn1c(C)c(-c2cccnc2)c(=O)c(C(=O)O)c1-c1ccc(Cl)c(Cl)c1 [Compound 19]", "5 (5=81-100%)"),
    ("CCOc1ccc(-c2c(C)n(CC)c(-c3ccc(Cl)c(Cl)c3)c(C(=O)O)c2=O)cc1", "2 (2=21-40%)"),
    ("CCn1c(C)c(-c2ccc(S(=O)(=O)CC)cc2)c(=O)c(C(=O)O)c1-c1ccc(Cl)c(Cl)c1", "2 (2=21-40%)"),
    ("CCn1c(C)c(-c2cccc(OC)c2F)c(=O)c(C(=O)O)c1-c1ccc(Cl)cc1", "2 (2=21-40%)"),
    ("CCn1c(C)c(-c2ccc(F)cc2OC)c(=O)c(C(=O)OC)c1-c1ccc(Cl)c(Cl)c1 [Compound 164]", 0),
    ("CCOc1cc(-c2c(C)n(CC)c(-c3ccc(Cl)cc3)c(C(=O)O)c2=O)ccc1C(F)(F)F", "1 (1=0-20%)"),
    ("CCn1c(C)c(-c2ccc(C(C)=O)cc2)c(=O)c(C(=O)O)c1-c1ccc(Cl)c(Cl)c1", "1 (1=0-20%)"),
    ("CCc1ccc(-c2c(C)n(CC)c(-c3ccc(Cl)c(Cl)c3)c(C(=O)O)c2=O)cc1", "1 (1=0-20%)"),
    ("CCn1c(C)c(-c2ccc(Cl)s2)c(=O)c(C(=O)O)c1-c1ccc(Cl)c(Cl)c1", "4 (4=61-80%)"),
    ("CCn1c(C)c(-c2cnc3c(c2)OC(F)(F)O3)c(=O)c(C(=O)O)c1-c1ccc(Cl)c(Cl)c1", "3 (3=41-60%)"),
    ("CCOc1cc(-c2c(C)n(CC)c(-c3ccc(Cl)c(Cl)c3)c(C(=O)O)c2=O)ccc1C(F)(F)F", "1 (1=0-20%)"),
    ("CCOC(=O)c1c(-c2ccc(Br)cc2F)n(CC)c(C)c(-c2ccc(Cl)cc2)c1=O", "4 (4=61-80%)"),
    ("CCn1c(C)c(-c2ccc(F)c(C#N)c2)c(=O)c(C(=O)O)c1-c1ccc(Cl)c(Cl)c1 [Compound 92]", "1 (1=0-20%)"),
    ("CCn1c(C)c(-c2ccc(OCc3ccccc3)cc2)c(=O)c(C(=O)O)c1-c1ccc(Cl)c(Cl)c1", "2 (2=21-40%)"),
    ("CCn1c(C)c(-c2ccc(Cl)cc2)c(=O)c(C(=O)NN(C)C)c1-c1ccc(Cl)c(Cl)c1", "2 (2=21-40%)"),
    ("CCOc1cc(-c2c(C)n(CC)c(-c3ccc(Cl)c(Cl)c3)c(C(=O)O)c2=O)ccc1C#N", "2 (2=21-40%)"),
    ("CCn1c(C)c(-c2cscc2C)c(=O)c(C(=O)O)c1-c1ccc(Cl)c(Cl)c1", "3 (3=41-60%)"),
    ("CCn1c(C)c(-c2ccc(Cl)c(Cl)c2)c(=O)c(C(=O)O)c1-c1ccc(Cl)c(Cl)c1", "1 (1=0-20%)"),
    ("CCn1c(C)c(-c2cncn2C)c(=O)c(C(=O)OC)c1-c1ccc(Cl)c(Cl)c1", "1 (1=0-20%)"),
    ("CCn1c(C)c(-c2ccc(C(F)(F)F)cc2)c(=O)c(C(=O)O)c1-c1ccc(Cl)c(Cl)c1", "4 (4=61-80%)"),
    ("CCn1c(C)c(-c2ccc(F)c(OCC(F)(F)F)c2)c(=O)c(C(=O)O)c1-c1ccc(Cl)c(Cl)c1", "3 (3=41-60%)"),
    ("CCn1c(C)c(-c2cc(F)cc(OCC(F)(F)F)c2)c(=O)c(C(=O)O)c1-c1ccc(Cl)c(Cl)c1", "1 (1=0-20%)"),
    ("CCn1c(C)c(-c2ccc(C(F)(F)F)nc2)c(=O)c(C(=O)O)c1-c1ccc(Cl)c(Cl)c1", "2 (2=21-40%)"),
    ("CCOc1cc(-c2c(C)n(CC)c(-c3ccc(Cl)c(Cl)c3)c(C(=O)O)c2=O)cc(C(F)(F)F)c1", "2 (2=21-40%)"),
    ("CCn1c(C)c(-c2ccc(OC(F)(F)F)cc2)c(=O)c(C(=O)O)c1-c1ccc(F)cc1F", "3 (3=41-60%)"),
    ("CCn1c(C)c(-c2ccccc2)c(=O)c(C(=O)O)c1-c1ccc(Cl)c(Cl)c1", "3 (3=41-60%)"),
    ("CCn1c(C)c(-c2ccc(Cl)cc2F)c(=O)c(C(=O)O)c1-c1ccc(Cl)c(Cl)c1", "5 (5=81-100%)"),
    ("CCn1c(C)c(-c2ccc(F)c(Cl)c2)c(=O)c(C(=O)O)c1-c1ccc(Cl)c(Cl)c1", "2 (2=21-40%)"),
    ("CCn1c(C)c(-c2cc(C)c(F)c(C)c2)c(=O)c(C(=O)O)c1-c1ccc(Cl)cc1", "1 (1=0-20%)"),
    ("CCn1c(C)c(-c2ccc(C(C)(C)C)cc2)c(=O)c(C(=O)O)c1-c1ccc(Cl)c(Cl)c1", "1 (1=0-20%)"),
    ("CCn1c(C)c(-c2ccc(Cl)c(F)c2)c(=O)c(C(=O)O)c1-c1ccc(Cl)c(Cl)c1", "5 (5=81-100%)"),
]
